target: Microphthalmia-associated transcription factor (Homo sapiens); test: MITF inhibitors, primary screen, biochemical, AlphaScreen, human (AID 1259374); conditions: AlphaScreen MITF homodimerization, bead proximity signal; at 2.6 µM; active compounds read high;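 note: 0% = vehicle wells with protein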
Among all 650,000 compounds or so, about 5,900 (0.91%) were called active. Only a selection was taken, and actives are over-represented in it overall.
Exercise: for every item that follows, state its recorded inhibition.
Numbers only, in %.

Worked examples, 3 compounds total:
1. CCNCc1ccc(OCC(=O)Nc2ccc(OC)cc2)c(OC)c1 | -12.6
2. CCC1CN(Cc2ccccn2)Cc2ccc(Cl)cc2O1 (centres undefined) | -11.7
3. CCOC(=O)N/N=C/c1ccc(OS(=O)(=O)c2ccc(C)cc2)c(OC)c1 | 2.78

Respectfully, I request inhibition for each entry included below.
1. CC1CN(c2ccc(/C=C(\C#N)c3nc4ccccc4[nH]3)o2)CC(C)O1 (centres undefined)
2. CCN1C(=O)/C(=C/c2ccc(-c3ccc(Br)cc3)o2)N(CC)C1=S
3. OC1(Cc2ccccc2)CCN(Cc2ccncc2)CC1
4. C=CCc1cc(C)ccc1OCCCn1ccnc1

[out]
-14.4
-10.4
1.54
64.5

Respectfully, I request inhibition for each entry included below.
1. O=S(=O)(NC1CCCC1)c1ccc(-c2ccc(S(=O)(=O)NC3CCCC3)cc2)cc1
2. Clc1ccc(OCCOCCn2ccnc2)c(Br)c1

[out]
1. -2.79
2. 46.3

All figures here come from PubChem BioAssay AID1259374.
